# System: MCF7 breast
# protocol: NCI-60 one-dose screen, 48 h
# study-conditions: 10 µM unless noted
About 83,000 compounds went through this panel and 20% of them were active in at least one assay; those are over-represented in the sample as a whole. Calls of active or inactive are those of the source. How the source made its calls: active means growth percent below 10; inactive means the rest.
Your response should consist of one outcome taken from active, inactive

Q. Please let me know the test result on file for CNC1=C([N+](=O)[O-])C(c2ccc(OC)cc2)C(C#N)=C(c2cccs2)O1 (stereo unspecified) .
A. inactive

Q. Please let me know the test result on file for `CC1(C)NCCC[C@]2(C)[C@H]3CC[C@H]4[C@H]5[C@H](C(=O)/C=C/c6cccnc6)CCC[C@]5(CO)CC[C@@]4(C)[C@]3(C)CC[C@@H]12` .
A. inactive

Q. Please let me know the test result on file for `CCOC(=O)C(=Cc1ccc(-c2ccccc2)cc1)C(=O)OCC` .
A. inactive

Values were extracted from PubChem BioAssay (NCI).
